- assayed-system: human NTCP (Homo sapiens)
- assay-summary: Screening taurocholate uptake assay (96-well, [14C]taurocholate, 10 µM drug)
Where a name gives a salt, the structure may show the parent alone.
measurement-label: B-score functional assay
Just the number, please.

Bench note: what B-score functional assay did O=[N+]([O-])O[C@H]1CO[C@H]2[C@@H]1OC[C@H]2O[N+](=O)[O-] [Isosorbide dinitrate] show? 2.183

Report B-score functional assay for COc1ccc2[nH]c([S+]([O-])Cc3ncc(C)c(OC)c3C)nc2n1 (centres unmarked) please. -1.232

What measured B-score functional assay goes with O=C(NCCNCC(O)COc1ccc(O)cc1)N1CCOCC1 (centres unmarked) [Xamoterol hemifumarate] ? 0.875

Please report the recorded B-score functional assay for Oc1ccc2c3c1O[C@H]1[C@@H](O)CC[C@@]4(O)[C@@H](C2)N(CC2CCC2)CC[C@]314 [Nalbuphine hydrochloride] . -1.445

Returns the measured B-score functional assay for the input molecule. Input: `C[C@]12CC[C@@H](O)C[C@@H]1CC[C@@H]1[C@@H]2CC[C@]2(C)C(=O)CC[C@@H]12` 0.451

Which B-score functional assay value belongs to COc1cccc2c1C(=O)c1c(O)c3c(c(O)c1C2=O)C[C@@](O)(C(=O)CO)C[C@@H]3O[C@H]1C[C@H](N)[C@@H](O)[C@H](C)O1 [Epirubicin hydrochloride] ? 0.079

Which B-score functional assay is listed for COc1ccnc(C[S+]([O-])c2nc3ccc(OC(F)F)cc3[nH]2)c1OC (centres unmarked) [Pantoprazole sodium] ? 0.443

Reported B-score functional assay for CCCC(C)C1(CC)C(=O)NC(=O)NC1=O (centres unmarked) : what is it? -0.299

* * *

- assayed-system: human NTCP (Homo sapiens, UniProt Q14973)
- Sequence (Q14973 1-349): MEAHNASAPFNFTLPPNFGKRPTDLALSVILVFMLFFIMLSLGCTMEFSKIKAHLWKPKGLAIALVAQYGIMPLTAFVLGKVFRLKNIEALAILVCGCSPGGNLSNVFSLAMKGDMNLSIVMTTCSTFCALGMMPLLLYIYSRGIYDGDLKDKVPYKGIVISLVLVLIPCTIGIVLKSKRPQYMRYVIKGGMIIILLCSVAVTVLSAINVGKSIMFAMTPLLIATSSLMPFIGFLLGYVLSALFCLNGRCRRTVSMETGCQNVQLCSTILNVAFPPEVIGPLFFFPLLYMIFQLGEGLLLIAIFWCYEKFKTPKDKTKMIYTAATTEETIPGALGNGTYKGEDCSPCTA
- assay-summary: Screening taurocholate uptake assay (96-well, [14C]taurocholate, 10 µM drug)
- measurement-setup: Prestwick library screen, 10 µM drug; B-score of taurocholate uptake
Structures can show the parent of a compound that is named as a salt.
measurement-label: B-score functional assay
Keep it simple and answer with nothing but the number.

Need B-score functional assay of COc1ccc(CC2c3cc(OC)c(OC)cc3CC[N+]2(C)CCC(=O)OCCCCCOC(=O)CC[N+]2(C)CCc3cc(OC)c(OC)cc3C2Cc2ccc(OC)c(OC)c2)cc1OC (stereo not drawn) [Atracurium besylate] , thanks. 2.141

Please look up its B-score functional assay: CCN1CCCC1CNC(=O)c1cc(S(=O)(=O)CC)c(N)cc1OC (stereo not drawn) [Amisulpride] 0.107

GET /values?readout=B-score functional assay&item= `CNC(=C[N+](=O)[O-])NCCSCc1csc(CN(C)C)n1` 0.271

I have this molecule here, CCOC(=O)c1cncn1[C@H](C)c1ccccc1 [Etomidate] , and I need its recorded B-score functional assay. 5.522

// query B-score functional assay value for entry `C#C[C@]1(O)CC[C@H]2[C@@H]3CCC4=CCCC[C@@H]4[C@H]3CC[C@@]21C` 2.662

Which B-score functional assay value is on record for CC(CN1c2ccccc2Sc2ccccc21)N(C)C (stereo not drawn) [Promethazine hydrochloride] ? -0.002

Give its B-score functional assay value. Item: NC(=O)c1cccnc1 [Nicotinamide] 1.452

What value of B-score functional assay has been recorded for this entry: CCN(CC)CCNC(=O)c1cc(S(C)(=O)=O)ccc1OC [Tiapride hydrochloride] 1.625

Reported B-score functional assay for O=C(CCNNC(=O)c1ccncc1)NCc1ccccc1 [Nialamide] : what is it? 0.331

* * *

- assayed-system: human NTCP (Homo sapiens)
- assay-summary: Screening fluorescent competitive Myrcludex B-FITC binding assay (96-well, 10 µM drug)
- measurement-setup: screen, 10 µM drug, Myrcludex B-FITC binding
Structures can show the parent of a compound that is named as a salt.
measurement-label: B-score binding assay
Returns: the value as a bare number; no unit string appended.

Quick one: B-score binding assay for CC(=O)N1CCN(c2ccc(OCC3COC(Cn4ccnc4)(c4ccc(Cl)cc4Cl)O3)cc2)CC1 (centres unmarked) ? -1.382

Requested read-out: B-score binding assay. Entry: CCCNC(C)(C)COC(=O)c1ccccc1 [Meprylcaine hydrochloride] -1.608

# query: B-score binding assay of entry C(#CCN1CCCC1)CN1CCCC1.Cl.Cl [Tremorine dihydrochloride] 1.525

Given the entry N=C(N)NCC1COC2(CCCCC2)O1.N=C(N)NCC1COC2(CCCCC2)O1.O=S(=O)(O)O (centres unmarked) [Guanadrel sulfate] , report its measured B-score binding assay. 0.27

Bench note: what B-score binding assay did CCN(CC)CCOC(=O)C(c1ccccc1)c1ccccc1 [Adiphenine hydrochloride] show? -0.701

Reported B-score binding assay for `CCN(CC)C(=O)/C(C#N)=C/c1cc(O)c(O)c([N+](=O)[O-])c1` : what is it? -0.647

Given the entry CCCCN(CCCC)CCC(O)c1cc2c(Cl)cc(Cl)cc2c2cc(C(F)(F)F)ccc12 (centres unmarked) [Halofantrine hydrochloride] , report its measured B-score binding assay. -1.143

Any idea what B-score binding assay was measured for `O=c1oc2ccccc2c(O)c1Cc1c(O)c2ccccc2oc1=O` ? 1.31

* * *

- assayed-system: human NTCP (Homo sapiens, UniProt Q14973)
- assay-summary: Screening fluorescent competitive Myrcludex B-FITC binding assay (96-well, 10 µM drug)
- measurement-setup: Prestwick library screen, Myrcludex B-FITC binding, 10 µM drug
Counter-ions that a name gives are not always drawn.
B-score binding assay less than 0.2 is MET; B-score binding assay greater than or equal to 0.2 is NOT MET.

Is B-score binding assay of CCN[C@H]1CN(CCCOC)S(=O)(=O)c2sc(S(N)(=O)=O)cc21 [Brinzolamide] strictly below 0.2? MET

Given the entry CCCN(CCC)S(=O)(=O)c1ccc(C(=O)O)cc1 [Probenecid] , would its reported B-score binding assay be below 0.2? NOT MET

Is it true that B-score binding assay reported for COc1ccc2c(c1)N(C[C@H](C)CN(C)C)c1ccccc1S2.O=C(O)/C=C\C(=O)O [Methotrimeprazine maleat salt] is less than 0.2? MET

Given the entry CC[C@]12CCCN3CCc4c(n(c5ccccc45)[C@@](O)(C(=O)OC)C1)[C@@H]32 [Vincamine] , would its reported B-score binding assay be below 0.2? NOT MET

Is B-score binding assay strictly under 0.2 for the entry NC(=O)N1c2ccccc2C=Cc2ccccc21 [Carbamazepine] ? MET

Input C=CC(N)CCC(=O)O (stereo not drawn) [Vigabatrin] ; condition: B-score binding assay strictly below 0.2. Does it hold? NOT MET

Field: below-cutoff. Rule: recorded B-score binding assay strictly less than 0.2. Subject: Nc1nc2c(ncn2COCCO)c(=O)[nH]1 [Acyclovir] MET

I'd appreciate it if you could check whether CCn1cc(C(=O)O)c(=O)c2cnc(N3CCNCC3)nc21 [Pipemidic acid] has B-score binding assay smaller than 0.2. NOT MET

Field: below-cutoff. Rule: recorded B-score binding assay strictly less than 0.2. Subject: Nc1nc(=O)c2c([nH]1)NCC(CNc1ccc(C(=O)N[C@@H](CCC(=O)[O-])C(=O)[O-])cc1)N2C=O.[Ca+2] (stereo partly drawn) [Folinic acid calcium salt] MET

Please let me know if COc1ccc(OC)c(C(O)CNC(=O)CN)c1 (stereo not drawn) [Midodrine hydrochloride] shows B-score binding assay below 0.2. NOT MET

Please check: B-score binding assay for CN1CCC2(C)c3cc(O)ccc3N(C)C12.O=C(O)/C=C/C(=O)O (single isomer, unassigned; (-)) [(-)-Eseroline fumarate salt] , strictly under 0.2 or not? NOT MET

B-score binding assay under 0.2? Item: CC(C)(C(=O)c1cccnc1)c1cccnc1 [Metyrapone] MET

Input CCOC(=O)/C=C(C)/C=C/C=C(C)/C=C/c1c(C)cc(OC)c(C)c1C [Etretinate] ; condition: B-score binding assay strictly below 0.2. Does it hold? MET

I'd appreciate it if you could check whether Nc1nc(N)c2nc(-c3ccccc3)c(N)nc2n1 [Triamterene] has B-score binding assay smaller than 0.2. MET

Determine if CCC(=O)O[C@]1(C(=O)SCF)[C@H](C)C[C@H]2[C@@H]3C[C@H](F)C4=CC(=O)C=C[C@]4(C)[C@@]3(F)[C@@H](O)C[C@@]21C [Fluticasone propionate] shows B-score binding assay strictly lower than 0.2. NOT MET

hey, is B-score binding assay for CCn1cc(C(=O)O)c(=O)c2cc(F)c(N3CCNCC3)cc21 [Norfloxacin] lower than 0.2 or not? NOT MET

Strictly below 0.2: is that where B-score binding assay of O=C(O)COCCN1CCN(C(c2ccccc2)c2ccc(Cl)cc2)CC1 (stereo not drawn) [Cetirizine dihydrochloride] sits? MET

Field: below-cutoff. Rule: recorded B-score binding assay strictly less than 0.2. Subject: Oc1ncnc2[nH]ncc12 [Allopurinol] NOT MET
